Format: in vivo, human
Details: male, human, plasma, po
Reported Endpoint: Vd/F (L)

{"columns": ["Molecular String", "Reported Endpoint", "Unit Abbreviation", "Readout Number"],
 "data": [
  ["CCOc1cc([C@@H](CS(C)(=O)=O)N2C(=O)c3cccc(NC(C)=O)c3C2=O)ccc1OC", "Vd/F", "L", 84]
]}

###

Format: in vivo, human
Conditions: both, human, plasma, po

{"columns": ["Molecular String", "Tmax / h"],
 "data": [
  ["CCOc1cc([C@@H](CS(C)(=O)=O)N2C(=O)c3cccc(NC(C)=O)c3C2=O)ccc1OC", 1]
]}

Taken from paper PMC4238785.
